target: HTH-type transcriptional regulator LuxR (Vibrio harveyi) (UniProt P21308)
Sequence (P21308 whole entry): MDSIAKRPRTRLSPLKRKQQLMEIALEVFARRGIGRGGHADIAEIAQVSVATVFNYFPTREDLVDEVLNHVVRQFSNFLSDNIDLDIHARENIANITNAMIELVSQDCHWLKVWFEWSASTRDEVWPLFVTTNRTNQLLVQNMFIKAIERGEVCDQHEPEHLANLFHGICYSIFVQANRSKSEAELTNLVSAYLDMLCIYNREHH
test-name: Inhibition of LuxR quorum sensing system in Vibrio harveyi BB120 assessed as inhibition of autoinducer-2 induced luxR activity at 100 uM for 16 hrs by bioluminescence assay
Reported inhibition values follow for various compounds
Number only, in %; omit the unit.

A selection of reference data follows.
structure_notation=CCCCCCCCCC/C=C/C=O target="HTH-type transcriptional regulator LuxR (Vibrio harveyi) (UniProt P21308)" measured_endpoint=inhibition result_value=56
structure_notation=CCCCC/C=C/C=O target="HTH-type transcriptional regulator LuxR (Vibrio harveyi) (UniProt P21308)" measured_endpoint=inhibition result_value=71

Next up:
For the compound "COc1ccc(/C=C/C=O)cc1" , what inhibition is on record? 34
